tested on: DU-145 prostate; test: NCI tumour cell line growth inhibition, 48 h
Reported TGI values follow for various compounds

Worked examples, 2 compounds total:
compound	TGI
N=C(N)c1ccc(CS(=O)(=O)F)cc1	> 100 µM
Cc1c(C)n(CC(O)CNC2CCCCC2C)c2ccccc12 (stereo not drawn)	31.6 µM

Please turn your attention to the following entry.
Lookup: For "O=c1ncc(I)c[nH]1" , write its TGI.
Found: > 100 µM

* * *

# Lookup of reported TGI keyed by entry
tested on: DU-145 prostate; experiment: NCI tumour cell line growth inhibition, 48 h
Report the value in µM with no unit label.

chemical-structure	target-desc	TGI, µM
C#CCn1c(=O)c(I)cn(/C(=C\C(=O)OCC)C(=O)OCC)c1=O	DU-145 prostate	31.3

Let us move to another entry and its TGI.
Lookup: Find the measured TGI of "Cc1ccc(C(=O)Nc2ccc(CN3CCN(C)CC3)c(C(F)(F)F)c2)cc1C#Cc1cnc(N)c2ccc(C#N)cc12" and report it.
Found: 7.39

* * *

system: HOP-92 NSCLC; assay: NCI tumour cell line growth inhibition, 48 h
Reported TGI values follow for various compounds
Provide the reading as a plain figure in µM.

Sample records with TGI:
chemical-structure	target-desc	reported
COc1ccc2nc(-c3ccc(Cl)cc3)cc(-c3nnc(SCC(=O)Nc4ccc(/C(C)=N\O)cc4)o3)c2c1	HOP-92 NSCLC	5.26
Oc1ccccc1/C=N/Nc1nc2ccccc2s1	HOP-92 NSCLC	19.5
O=C(Nc1ccc(-n2ccc3c(NC(=O)c4ccccc4)ncnc32)cc1)Nc1ccc(Cl)c(C(F)(F)F)c1	HOP-92 NSCLC	4
CC1(C)CCc2cc3c(cc2O1)OC(C)(C)CC3=O	HOP-92 NSCLC	70.7

Consider the record given below.
Lookup: Using known records, supply TGI for "CC/C=C\C[C@H](O)C/C=C1/C(=O)C=C[C@@H]1C/C=C\CCCC(=O)OCCS(=O)(=O)c1ccccc1"
Found: 19.4

* * *

tested on: RPMI-8226 leukemia; assay: NCI tumour cell line growth inhibition, 48 h; in the data active = GI50 below about 0.43 µM; inactive = the rest
Form entry, call: pick from active, inactive

Use these answered entries as a reference point.
compound	assigned-category
CC[C@]12C=CCN3CC[C@@]4(c5ccc(OC)cc5N(C)[C@H]4[C@@](O)(C(=O)OC)[C@@H]1OC(=O)CCCC[P+](c1ccccc1)(c1ccccc1)c1ccccc1)[C@@H]32	active
COc1ccc(Nc2[nH]n(C3=Nc4ccccc4Sc4ccccc43)c(=O)c2C#N)cc1	inactive
COc1ccc(-c2c(-c3cc4c(c(OC)c3OC)OCO4)noc2N)cc1	inactive
Cc1ccc(C(=O)Nc2ccc(CN3CCN(C)CC3)c(C(F)(F)F)c2)cc1C#Cc1cnc(N)c2ccc(C#N)cc12	inactive
COc1ccc(C(=O)OC2C(OC3C(O)COC(O[C@H]4C[C@H]5[C@@H]6CC=C7C[C@@H](O)CC[C@]7(C)[C@H]6CC[C@]5(C)[C@H]4[C@H](C)C(=O)CCC(C)C)C3OC(=O)C(C)C)OCC(O)C2O)cc1 (some centres not stated)	active
C=C(C)[C@@H]1CC[C@]2(C(=O)N3CCN(C)CC3)CC[C@]3(C)[C@H](CC[C@@H]4[C@@]5(C)C/C(=C/c6ccncc6)[C@H](O)C(C)(C)[C@@H]5CC[C@]43C)[C@@H]12	inactive

API: the following record is the query input.
Lookup: Dear all, I need the recorded test outcome for "Cc1cc(C)nc(NS(=O)(=O)c2ccc(Nc3nc4nc(NCc5ccccc5)nc(-c5ccc(O)cc5)c4c(=O)[nH]3)cc2)n1" , thank you.
Found: inactive

The reported measurements were obtained from PubChem BioAssay (NCI).
